target: T1, Hu HER3: CD33-[Human HER3, residues 20-640]-TAG (human, UniProt P21860 20-640); test: SET, IgG vs soluble HER3-Tag
T1 construct: also called hu HER3-Tag; HER3-Tag; not shown: C-terminal TAG (e.g., FLAG TAG)
T1 sequence (P21860 20-640): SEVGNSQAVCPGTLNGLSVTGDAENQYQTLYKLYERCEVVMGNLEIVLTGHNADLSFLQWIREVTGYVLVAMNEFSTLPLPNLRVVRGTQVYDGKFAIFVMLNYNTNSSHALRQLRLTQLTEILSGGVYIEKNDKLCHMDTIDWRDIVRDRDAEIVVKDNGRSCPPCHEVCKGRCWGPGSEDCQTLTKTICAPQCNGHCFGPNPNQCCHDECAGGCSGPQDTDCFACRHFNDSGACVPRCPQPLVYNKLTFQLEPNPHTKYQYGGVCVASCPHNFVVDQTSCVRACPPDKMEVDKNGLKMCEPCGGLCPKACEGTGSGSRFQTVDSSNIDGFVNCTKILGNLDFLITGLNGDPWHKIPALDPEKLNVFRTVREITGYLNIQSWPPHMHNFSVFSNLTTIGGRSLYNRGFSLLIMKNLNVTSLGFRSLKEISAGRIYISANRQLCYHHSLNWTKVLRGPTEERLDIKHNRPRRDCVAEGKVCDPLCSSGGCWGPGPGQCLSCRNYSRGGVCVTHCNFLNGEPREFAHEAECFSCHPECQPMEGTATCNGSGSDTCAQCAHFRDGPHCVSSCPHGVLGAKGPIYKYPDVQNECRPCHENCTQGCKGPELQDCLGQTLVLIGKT
recordedEndpoint: Kd (pM)
# value in pM; strip the unit string

{"columns": ["binder", "u", "Kd"],
 "data": [
  ["MOR12616 (antibody, human IgG1, kappa, V domains shown, tested as IgG) VH: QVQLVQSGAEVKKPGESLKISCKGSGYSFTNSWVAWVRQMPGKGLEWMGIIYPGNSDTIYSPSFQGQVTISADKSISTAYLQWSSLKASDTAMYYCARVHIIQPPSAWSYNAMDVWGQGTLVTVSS VL: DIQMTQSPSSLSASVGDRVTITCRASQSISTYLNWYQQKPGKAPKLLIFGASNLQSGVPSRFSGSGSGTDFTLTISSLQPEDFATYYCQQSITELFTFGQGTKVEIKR", "pM", 20],
  ["MOR13868 (antibody, human IgG1, kappa, V domains shown, tested as IgG) VH: QVQLVQSGAEVKKPGESLKISCKGSGYSFSNYWIAWVRQMPGKGLEWMGIIYPGLSDTIYSPSFQGQVTISADKSISTAYLQWSSLKASDTAMYYCARVHIIQPPSAWSYNAMDVWGQGTLVTVSS VL: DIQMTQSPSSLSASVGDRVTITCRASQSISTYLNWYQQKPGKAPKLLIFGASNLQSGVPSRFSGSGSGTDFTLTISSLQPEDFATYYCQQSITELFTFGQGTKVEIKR", "pM", 133]
]}

Alright, here's another binder for you.
Quick note, Kd for MOR13765 (antibody, human IgG1, kappa, V domains shown, tested as IgG) VH: QVQLVQSGAEVKKPGESLKISCKGSGYSFTGSWVAWVRQMPGKGLEWMGIIYPGTSDTIYSPSFQGQVTISADKSISTAYLQWSSLKASDTAMYYCARVHIIQPPSAWSYNAMDVWGQGTLVTVSS VL: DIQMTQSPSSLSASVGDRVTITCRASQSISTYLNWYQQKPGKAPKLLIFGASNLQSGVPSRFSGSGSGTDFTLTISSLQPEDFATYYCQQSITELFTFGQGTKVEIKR landed at 64
